This collection of values is drawn from paper PMC12486805.

measurement target: CYP1A2 (Homo sapiens, UniProt P05177)
Sequence (P05177 whole entry): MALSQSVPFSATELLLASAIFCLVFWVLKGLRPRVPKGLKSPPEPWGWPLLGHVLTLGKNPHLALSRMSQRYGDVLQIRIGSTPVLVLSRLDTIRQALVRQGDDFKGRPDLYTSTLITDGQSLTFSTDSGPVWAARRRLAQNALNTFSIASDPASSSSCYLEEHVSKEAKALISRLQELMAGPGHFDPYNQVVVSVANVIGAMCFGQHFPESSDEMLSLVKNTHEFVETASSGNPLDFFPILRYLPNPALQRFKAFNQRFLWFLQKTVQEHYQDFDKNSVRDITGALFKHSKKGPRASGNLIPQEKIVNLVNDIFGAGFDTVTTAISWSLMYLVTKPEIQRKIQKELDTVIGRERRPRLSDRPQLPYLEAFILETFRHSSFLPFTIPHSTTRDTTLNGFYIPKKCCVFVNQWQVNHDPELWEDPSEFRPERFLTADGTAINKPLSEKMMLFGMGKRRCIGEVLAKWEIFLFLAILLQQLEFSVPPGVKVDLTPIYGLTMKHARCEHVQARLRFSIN
experiment description: in vitro
Type: biochemical
measurement conditions: human, % inhibition CYP 1A2
Where a SMILES comes first, the peptide text is derived from it. [ ]: non-standard residue; d: D form. The star is where a group is joined. d(aIle) = CC[C@H](C)[C@@H](N)C(=O)O; X1 = CC[C@H](C)CCCCC(=O)*; dDab = NCC[C@@H](N)C(=O)O; Dab = NCC[C@H](N)C(=O)O
assay endpoint: inhibition at 25 min, 30 µM

For the compound CC[C@H](C)CCCCC(=O)NCC(=O)N[C@H](CCN)C(=O)NCC(=O)N[C@H](CO)C(=O)N[C@H](Cc1c[nH]c2ccccc12)C(=O)N[C@@H](CO)C(=O)N[C@@H](CCN)C(=O)N[C@H](CCN)C(=O)N[C@H](C(=O)N[C@@H](CCC(=O)O)C(=O)N[C@H](C(=O)N[C@@H](C(=O)N[C@@H](CO)C(=O)O)[C@@H](C)CC)[C@@H](C)CC)[C@@H](C)CC [Tridecaptin M, tridecaptin M] (X1-G[dDab]G[dS][dW]S[Dab][dDab]IEI[d(aIle)]S-OH) , what inhibition at 25 min, 30 µM is on record?
≤ 0%

###

measurement target: CYP2D6 (Homo sapiens, UniProt P10635)
Sequence (P10635 whole entry, canonical isoform): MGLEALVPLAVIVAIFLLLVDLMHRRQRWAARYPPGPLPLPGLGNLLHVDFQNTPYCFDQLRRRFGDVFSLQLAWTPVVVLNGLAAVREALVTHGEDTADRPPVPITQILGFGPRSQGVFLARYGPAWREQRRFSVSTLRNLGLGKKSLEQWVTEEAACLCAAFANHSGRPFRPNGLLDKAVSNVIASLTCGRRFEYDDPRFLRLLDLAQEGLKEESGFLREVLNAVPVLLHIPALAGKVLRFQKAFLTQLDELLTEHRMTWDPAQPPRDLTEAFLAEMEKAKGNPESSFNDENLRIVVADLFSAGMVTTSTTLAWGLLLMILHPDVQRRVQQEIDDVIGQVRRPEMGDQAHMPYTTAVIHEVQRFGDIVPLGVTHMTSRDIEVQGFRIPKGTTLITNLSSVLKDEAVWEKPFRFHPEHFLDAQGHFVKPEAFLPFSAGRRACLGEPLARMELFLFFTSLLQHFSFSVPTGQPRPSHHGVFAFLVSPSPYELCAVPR
experiment description: CYP inhibition assay, recombinant isoform, fluorescence
Assay type: biochemical
measurement conditions: human, recombinant CYP2D6; 0.1 µM; read-out: % inhibition CYP 2D6
assay endpoint: inhibition at 25 min, 0.1 µM (%)
Write down the numeric answer in % and omit the unit.

For the compound C=C[C@H]1C[N@@]2CC[C@H]1C[C@@H]2[C@@H](O)c1ccnc2ccc(OC)cc12 [Quinidine, reference compound] , what inhibition at 25 min, 0.1 µM is on record?
93.4

###

experiment description: in vitro
measurement conditions: human, microsomes, pH 7.4
Where a SMILES comes first, the peptide text is derived from it. [ ]: non-standard residue; d: D form. The star is where a group is joined. d(aIle) = CC[C@H](C)[C@@H](N)C(=O)O; X1 = CC[C@H](C)CCCCC(=O)*; dDab = NCC[C@@H](N)C(=O)O; Dab = NCC[C@H](N)C(=O)O
assay endpoint: microsomal CLint (µL/min/mg)
Write down the numeric answer in µL/min/mg and omit the unit.

For the compound CC[C@H](C)CCCCC(=O)NCC(=O)N[C@H](CCN)C(=O)NCC(=O)N[C@H](CO)C(=O)N[C@H](Cc1c[nH]c2ccccc12)C(=O)N[C@@H](CO)C(=O)N[C@@H](CCN)C(=O)N[C@H](CCN)C(=O)N[C@H](C(=O)N[C@@H](CCC(=O)O)C(=O)N[C@H](C(=O)N[C@@H](C(=O)N[C@@H](CO)C(=O)O)[C@@H](C)CC)[C@@H](C)CC)[C@@H](C)CC [Tridecaptin M, tridecaptin M] (X1-G[dDab]G[dS][dW]S[Dab][dDab]IEI[d(aIle)]S-OH) , what microsomal CLint is on record?
17.6

###

experiment description: in vitro
measurement conditions: rat, microsomes, pH 7.4
Where a SMILES comes first, the peptide text is derived from it. [ ]: non-standard residue; d: D form. The star is where a group is joined. d(aIle) = CC[C@H](C)[C@@H](N)C(=O)O; X1 = CC[C@H](C)CCCCC(=O)*; dDab = NCC[C@@H](N)C(=O)O; Dab = NCC[C@H](N)C(=O)O
assay endpoint: remaining at 1 h

For the molecule CC[C@H](C)CCCCC(=O)NCC(=O)N[C@H](CCN)C(=O)NCC(=O)N[C@H](CO)C(=O)N[C@H](Cc1c[nH]c2ccccc12)C(=O)N[C@@H](CO)C(=O)N[C@@H](CCN)C(=O)N[C@H](CCN)C(=O)N[C@H](C(=O)N[C@@H](CCC(=O)O)C(=O)N[C@H](C(=O)N[C@@H](C(=O)N[C@@H](CO)C(=O)O)[C@@H](C)CC)[C@@H](C)CC)[C@@H](C)CC [Tridecaptin M, tridecaptin M] (X1-G[dDab]G[dS][dW]S[Dab][dDab]IEI[d(aIle)]S-OH) , what remaining at 1 h is on record?
70.1%

###

measurement target: CYP2C19 (Homo sapiens)
Sequence (P33261 whole entry, canonical isoform): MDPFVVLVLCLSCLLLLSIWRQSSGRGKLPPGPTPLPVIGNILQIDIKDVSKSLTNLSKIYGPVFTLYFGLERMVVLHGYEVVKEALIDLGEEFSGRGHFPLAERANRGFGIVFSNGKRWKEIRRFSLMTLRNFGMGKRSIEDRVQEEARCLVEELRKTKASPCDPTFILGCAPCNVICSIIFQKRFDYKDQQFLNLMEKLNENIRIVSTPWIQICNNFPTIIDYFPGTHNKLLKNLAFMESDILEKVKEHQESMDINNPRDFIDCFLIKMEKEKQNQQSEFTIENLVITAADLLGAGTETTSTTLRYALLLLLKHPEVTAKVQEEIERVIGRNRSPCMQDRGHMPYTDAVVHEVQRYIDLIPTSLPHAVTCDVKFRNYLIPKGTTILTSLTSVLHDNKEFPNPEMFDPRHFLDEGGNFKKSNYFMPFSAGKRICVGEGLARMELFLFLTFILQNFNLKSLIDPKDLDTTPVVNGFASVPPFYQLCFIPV
experiment description: CYP inhibition assay, recombinant isoform, fluorescence
Format: biochemical
measurement conditions: human
Where a SMILES comes first, the peptide text is derived from it. [ ]: non-standard residue; d: D form. The star is where a group is joined. d(aIle) = CC[C@H](C)[C@@H](N)C(=O)O; X1 = CC[C@H](C)CCCCC(=O)*; dDab = NCC[C@@H](N)C(=O)O; Dab = NCC[C@H](N)C(=O)O
assay endpoint: inhibition at 25 min, 0.01 µM

Please tell me: inhibition at 25 min, 0.01 µM of CC[C@H](C)CCCCC(=O)NCC(=O)N[C@H](CCN)C(=O)NCC(=O)N[C@H](CO)C(=O)N[C@H](Cc1c[nH]c2ccccc12)C(=O)N[C@@H](CO)C(=O)N[C@@H](CCN)C(=O)N[C@H](CCN)C(=O)N[C@H](C(=O)N[C@@H](CCC(=O)O)C(=O)N[C@H](C(=O)N[C@@H](C(=O)N[C@@H](CO)C(=O)O)[C@@H](C)CC)[C@@H](C)CC)[C@@H](C)CC [Tridecaptin M, tridecaptin M] (X1-G[dDab]G[dS][dW]S[Dab][dDab]IEI[d(aIle)]S-OH) , system CYP2C19 (Homo sapiens)?
< 0%

###

measurement target: CYP2C9 (Homo sapiens, UniProt P11712)
Sequence (P11712 whole entry, canonical isoform): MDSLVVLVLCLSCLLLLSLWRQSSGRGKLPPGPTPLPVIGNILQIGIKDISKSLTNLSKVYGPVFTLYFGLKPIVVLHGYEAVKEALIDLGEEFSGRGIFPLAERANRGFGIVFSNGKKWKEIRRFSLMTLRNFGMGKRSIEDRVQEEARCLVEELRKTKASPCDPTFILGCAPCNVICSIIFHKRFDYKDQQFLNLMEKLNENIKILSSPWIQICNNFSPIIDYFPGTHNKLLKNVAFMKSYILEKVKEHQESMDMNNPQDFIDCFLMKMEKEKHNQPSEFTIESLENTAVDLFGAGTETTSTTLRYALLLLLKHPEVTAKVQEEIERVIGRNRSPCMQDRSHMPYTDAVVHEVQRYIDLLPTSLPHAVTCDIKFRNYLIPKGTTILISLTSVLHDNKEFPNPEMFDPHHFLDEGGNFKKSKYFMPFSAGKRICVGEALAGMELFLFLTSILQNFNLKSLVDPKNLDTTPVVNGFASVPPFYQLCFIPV
experiment description: CYP inhibition assay, recombinant isoform, fluorescence
Format: biochemical
measurement conditions: human
Where a SMILES comes first, the peptide text is derived from it. [ ]: non-standard residue; d: D form. The star is where a group is joined. d(aIle) = CC[C@H](C)[C@@H](N)C(=O)O; X1 = CC[C@H](C)CCCCC(=O)*; dDab = NCC[C@@H](N)C(=O)O; Dab = NCC[C@H](N)C(=O)O
assay endpoint: inhibition at 25 min, 30 µM (%)
Write down the numeric answer in % and omit the unit.

Please tell me: inhibition at 25 min, 30 µM of CC[C@H](C)CCCCC(=O)NCC(=O)N[C@H](CCN)C(=O)NCC(=O)N[C@H](CO)C(=O)N[C@H](Cc1c[nH]c2ccccc12)C(=O)N[C@@H](CO)C(=O)N[C@@H](CCN)C(=O)N[C@H](CCN)C(=O)N[C@H](C(=O)N[C@@H](CCC(=O)O)C(=O)N[C@H](C(=O)N[C@@H](C(=O)N[C@@H](CO)C(=O)O)[C@@H](C)CC)[C@@H](C)CC)[C@@H](C)CC [Tridecaptin M, tridecaptin M] (X1-G[dDab]G[dS][dW]S[Dab][dDab]IEI[d(aIle)]S-OH) , system CYP2C9 (Homo sapiens, UniProt P11712)?
25.6

###

measurement target: CYP2D6 (Homo sapiens)
experiment description: CYP inhibition assay, recombinant isoform, fluorescence
Assay type: biochemical
measurement conditions: human, recombinant CYP2D6; 0.3 µM; read-out: % inhibition CYP 2D6
assay endpoint: inhibition at 25 min, 0.3 µM (%)
Write down the numeric answer in % and omit the unit.

Please tell me: inhibition at 25 min, 0.3 µM of C=C[C@H]1C[N@@]2CC[C@H]1C[C@@H]2[C@@H](O)c1ccnc2ccc(OC)cc12 [Quinidine, reference compound] , system CYP2D6 (Homo sapiens)?
92.5

###

measurement target: CYP2C9 (Homo sapiens, UniProt P11712)
experiment description: CYP inhibition assay, recombinant isoform, fluorescence
Format: biochemical
measurement conditions: human; 0.003 µM; read-out: % inhibition CYP 2C9
assay endpoint: inhibition at 25 min, 0.003 µM (%)
Write down the numeric answer in % and omit the unit.

For the compound Nc1ccc(S(=O)(=O)Nc2ccnn2-c2ccccc2)cc1 [Sulfaphenazole, reference compound] , what inhibition at 25 min, 0.003 µM is on record?
3.42

###

experiment description: in vivo
measurement conditions: male, Sprague-Dawley, rat, plasma, iv, 5 mg/kg
Where a SMILES comes first, the peptide text is derived from it. [ ]: non-standard residue; d: D form. The star is where a group is joined. d(aIle) = CC[C@H](C)[C@@H](N)C(=O)O; X1 = CC[C@H](C)CCCCC(=O)*; dDab = NCC[C@@H](N)C(=O)O; Dab = NCC[C@H](N)C(=O)O
assay endpoint: Vd
Write your answer as a measured quantity: the number, then the unit.

For the molecule CC[C@H](C)CCCCC(=O)NCC(=O)N[C@H](CCN)C(=O)NCC(=O)N[C@H](CO)C(=O)N[C@H](Cc1c[nH]c2ccccc12)C(=O)N[C@@H](CO)C(=O)N[C@@H](CCN)C(=O)N[C@H](CCN)C(=O)N[C@H](C(=O)N[C@@H](CCC(=O)O)C(=O)N[C@H](C(=O)N[C@@H](C(=O)N[C@@H](CO)C(=O)O)[C@@H](C)CC)[C@@H](C)CC)[C@@H](C)CC [Tridecaptin M, tridecaptin M] (X1-G[dDab]G[dS][dW]S[Dab][dDab]IEI[d(aIle)]S-OH) , what Vd is on record?
0.16 L/kg
